Form: system (O-acyltransferase (Oryctolagus cuniculus)), quantity (IC50), values below.
Enter your answer as a number in nM; do not include the unit.

Please review the entries below; each comes with its answer.
CCCCCCCCCCCCCN1NN=C(NC(=O)Nc2c(C(C)C)cccc2C(C)C)N1 | 9
CCCCCCCCCCCCN1NN=C(NC(=O)Nc2c(C(C)C)cccc2C(C)C)N1 | 14
CC(C)c1cccc(C(C)C)c1NC(=O)NC1=NN(Cc2ccccc2)NN1 | 370
CCCCCCCCCCN1NN=C(NC(=O)Nc2c(C(C)C)cccc2C(C)C)N1 | 14

Next:
# query: IC50 | item CCCCCCCCCCCCCc1cc(NC(=O)Nc2c(C(C)C)cccc2C(C)C)on1 | system: O-acyltransferase (Oryctolagus cuniculus)
13
